system: 485368-065-R4-J2-PDC spheroids with HUVEC/MSC, viability; assay: Anticancer human tumor 485368-065-R4-J2-PDC patient-derived pancreatic carcinoma cell line growth inhibition [CLK]; conditions: second compound 10 µM; first compound 3.16 µM; active means viability on the fitted dose curve at most 10% of control; inactive means the rest;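 further: spheroids exposed to compounds for seven days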
The reply should be one of these categories: yes for active, no for inactive

Input: Could you check what this test reported for O=c1[nH]cc(F)c(=O)[nH]1 + CNC(=O)c1ccc(Nc2nc(OC3CCCC3)c3c(-c4ccc5nc(C)oc5c4)c[nH]c3n2)c(OC)c1 ?
Output: no

Input: Now the same for C=C(F)C(=O)N1CCN(c2nc(OCC3CCCN3C)nc3c2CCN(c2cccc4cccc(Cl)c24)C3)CC1CC#N (stereo not given) + CN1CCN(c2cc(C(=O)Nc3cc4cc(-c5cnn(C)c5)ccc4cn3)ccn2)CC1
Output: yes

Input: Now the same for Nc1ccn(C2OC(CO)C(O)C2(F)F)c(=O)n1 (stereo not given) + CN1CCN(c2cc(C(=O)Nc3cc4cc(-c5cnn(C)c5)ccc4cn3)ccn2)CC1
Output: yes

Input: Now the same for C#Cc1c(F)ccc2cc(O)cc(-c3ncc4c(N5CC6CCC(C5)N6)nc(OCC56CCCN5CC(F)C6)nc4c3F)c12 (stereo not given) + CN1CCN(c2cc(C(=O)Nc3cc4cc(-c5cnn(C)c5)ccc4cn3)ccn2)CC1
Output: yes

Input: Now the same for CCCS(=O)(=O)Nc1ccc(F)c(C(=O)c2c[nH]c3ncc(-c4ccc(Cl)cc4)cc23)c1F + CNC(=O)c1ccc(Nc2nc(OC3CCCC3)c3c(-c4ccc5nc(C)oc5c4)c[nH]c3n2)c(OC)c1
Output: no
